Assay: amyloid nucleation score (Sup35N fusion, yeast selection) (log enrichment); library NNK2; higher = more nucleation; inactive = no reads after selection;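 also: zero at mode of non-aggregating sequences after 7 days selection at 30°C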
Entry class follows amyloid nucleation score: LOW: < 0.6; MEDIUM: ≥ 0.6 and < 3; HIGH: ≥ 3

Ask: Which class holds LLISSLLTSDLLGPSSSVMD ?
Result: MEDIUM

Ask: Which class holds HFSVMCTTRSKRLSIKPEWR ?
Result: HIGH

* * *

Form field: amyloid nucleation score (one value per entry).
Test: amyloid nucleation score (Sup35N fusion, yeast selection) (log enrichment); library NNK2; higher = more nucleation; inactive = no reads after selection
Hey, just send me the number, nothing else.

Consider the reported amyloid nucleation score for these substances:
In [3]: df
Out[3]:
              substance  result_number
0  FGCSVNRKILVLMFVNVISV         -0.627
1  NNLPTQIYYVLNSPSEVRLN          0.579
2  VRFYDLFFKVGRQVYCLNNS         -0.694
3      MTIHVSTELAALSSGL           1.11
4  QTMVCTTISAPKSGSAWERS          0.109

Ask: GET /values?readout=amyloid nucleation score&item= CNGSRVKDFRCRFRWNGLGL
Result: -0.889

Ask: GET /values?readout=amyloid nucleation score&item= GLYTKT
Result: 0.028

Ask: GET /values?readout=amyloid nucleation score&item= MYRISPCVLRGY
Result: 0.366

Ask: GET /values?readout=amyloid nucleation score&item= KFCVRVYNYIVDRITSLMKT
Result: 3.22

Ask: GET /values?readout=amyloid nucleation score&item= IKTRKHSGIMAC
Result: 0.552

* * *

Experiment: amyloid nucleation score (Sup35N fusion, yeast selection) (log enrichment); library NNK3; higher = more nucleation; inactive = no reads after selection
reported-endpoint: amyloid nucleation score

>>> print(df.to_string())
          sequence_text    result
0  TLFADNAVQIVLERSLRGCG  inactive
1  FDFASFGKWVVVRFKCKTFT  inactive
2   SYGQSCCQDTGLSRNALMQ  inactive
3              NEGSNATC     0.713
4  PNGREWIMKYVGDAGYRVLS     0.515

Lab note: next sequence to report on.
Ask: GET /values?readout=amyloid nucleation score&item= FCQSFWLLQLARMPCYVESQ
Result: inactive

* * *

Experiment: amyloid nucleation score (Sup35N fusion, yeast selection) (log enrichment); library NNK3; higher = more nucleation; inactive = no reads after selection
reported-endpoint: amyloid nucleation score

Consider the reported amyloid nucleation score for these sequences:
>>> df
          sequence_text         reported_endpoint    result
0           FRMQGLKVREA  amyloid nucleation score  inactive
1  IADDQTYLLVLLFYFIKKLN  amyloid nucleation score  inactive
2   VSQYSVLGVAWSELFRTVD  amyloid nucleation score    -0.064
3  SKVIAPWYEEMRWWRSTGAV  amyloid nucleation score  inactive
4  LCILMMKVKVCVGNGLFLSA  amyloid nucleation score  inactive

Ask: GET /values?readout=amyloid nucleation score&item= VCNYEVVAVIRDE
Result: inactive

Ask: GET /values?readout=amyloid nucleation score&item= LVRKAAVPN
Result: inactive

Ask: GET /values?readout=amyloid nucleation score&item= SFLVSSINNVQGFFSVNGYV
Result: 0.085

Ask: GET /values?readout=amyloid nucleation score&item= TLGDGRPLCLREEWEGPVTC
Result: inactive

Ask: GET /values?readout=amyloid nucleation score&item= NYCDIYQGSNIF
Result: inactive

Ask: GET /values?readout=amyloid nucleation score&item= SCYSLSSESSCSVGMCSTLG
Result: inactive

Ask: GET /values?readout=amyloid nucleation score&item= VRYVSFAEFSWGLRFSVSRR
Result: inactive

Ask: GET /values?readout=amyloid nucleation score&item= TACQNDCVGG
Result: inactive

Ask: GET /values?readout=amyloid nucleation score&item= LMSFCHPDPIDFSVTGLCCR
Result: -0.208

Ask: GET /values?readout=amyloid nucleation score&item= YYYAFEFPFSYHERSALYYC
Result: inactive

Ask: GET /values?readout=amyloid nucleation score&item= CSGYVNGLVIQGKCAKDVVW
Result: inactive

Ask: GET /values?readout=amyloid nucleation score&item= KCWPIVCNLWNREWQCSLIR
Result: inactive

Ask: GET /values?readout=amyloid nucleation score&item= MIYSTRSVFDFCGTFNTVVY
Result: inactive

Ask: GET /values?readout=amyloid nucleation score&item= IQWMLCAKANLIEYKGVFFI
Result: inactive
